Task for the reader: assign each of the following binders its reported Kd.
targetOfAssay: T1, recombinant human IL-4 (human, UniProt P05112 25-153)
T1 construct: Bought reagent
T1 sequence (looked up): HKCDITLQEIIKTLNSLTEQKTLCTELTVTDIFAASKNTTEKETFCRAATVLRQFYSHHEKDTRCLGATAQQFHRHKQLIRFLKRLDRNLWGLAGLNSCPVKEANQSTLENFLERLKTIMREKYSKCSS
testMethodNotes: SPR Biacore 3000, antibody captured, cytokine in solution
Numbers only, in nM.

binder	Kd, nM
Hu8D4-8 VL1 × VH1 (antibody, V domains shown, Expressed as a whole antibody, purified on Protein A; also called hu8D4-8 VL1xVH1; humanized 8D4-8 VL1xVH1) VH: QVQLQQSGPELVKPGASVKISCKASGYSFTSYWIHWIKQRPGQGLEWIGMIDPSDGETRLNQRFQGRATLTVDESTSTAYMQLRSPTSEDSAVYYCTRLKEYGNYDSFYFDVWGAGTLVTVSS VL: DIQMTQSPASLSVSVGDTITLTCHASQNIDVWLSWFQQKPGNIPKLLIYKASNLHTGVPSRFSGSGSGTGFTLTISSLQPEDIATYYCQQAHSYPFTFGGGTKLEIKR	0.00329

Return reported Kd values for all items listed beneath this line.
1. chimeric anti-IL-4 clone 8D4-8 monoclonal antibody (antibody, V domains shown, Murine variable domains fused to IGHG1 and IGKC; also called ch8D4-8 WT; chimeric 8D4-8) VH: QVQLQQSGPQLVRPGTSVKISCKASGYSFTSYWIHWIKQRPGQGLEWIGMIDPSDGETRLNQRFKDRATLTVDRSSSTAYMQLRSPTSEDSALYYCTRLKEYGNYDSFYFDVWGAGTTVTVSS VL: DIQMNQSPASLSVSLGDTITLTCHASQNIDVWLSWFQQSPGNIPKLLIYKASNLHTGVPSRFSGSGSGTGFTLTISSLQPEDIATYYCQQAHSYPFTFGGGTKLEIK
2. Hu8D4-8 VL1 × VH2 (antibody, V domains shown, Expressed as a whole antibody, purified on Protein A; also called humanized 8D4-8 VL1xVH2) VH: QVQLQQSGPELVKPGASVKISCKASGYSFTSYWIHWIKQRPGQGLEWIGMIDASDGETRLNQRFQGRATLTVDESTSTAYMQLRSPTSEDSAVYYCTRLKEYGNYDSFYFDVWGAGTLVTVSS VL: DIQMTQSPASLSVSVGDTITLTCHASQNIDVWLSWFQQKPGNIPKLLIYKASNLHTGVPSRFSGSGSGTGFTLTISSLQPEDIATYYCQQAHSYPFTFGGGTKLEIKR
3. mouse anti-IL-4 monoclonal antibody clone 8D4-8 (antibody, V domains shown, Bought mouse monoclonal antibody (Biozol / BioLegend); also called murine 8D4-8) VH: QVQLQQSGPQLVRPGTSVKISCKASGYSFTSYWIHWIKQRPGQGLEWIGMIDPSDGETRLNQRFKDRATLTVDRSSSTAYMQLRSPTSEDSALYYCTRLKEYGNYDSFYFDVWGAGTTVTVSS VL: DIQMNQSPASLSVSLGDTITLTCHASQNIDVWLSWFQQSPGNIPKLLIYKASNLHTGVPSRFSGSGSGTGFTLTISSLQPEDIATYYCQQAHSYPFTFGGGTKLEIKR

0.00783
0.0139
0.0377
